Test system: SEM cells
method_summary: cell viability relative to DMSO control; higher = less cytotoxic
applied_conditions: HPLM + 10% dialyzed FBS; 48 h; 0.0211 µM
measurement_name: cell viability (%)
Only the number, expressed in %, is required.

* CC(=O)Oc1cc2c(s1)CCN(C(C(=O)C1CC1)c1ccccc1F)C2.Cl (stereo not drawn) | 113
* O=[S+]([O-])(F)Cc1ccccc1 | 122
* CN1\N=N/C2=C(N=C[N]2C1=O)C(N)=O | 111
* C/C(=C\c1csc(C)n1)[C@@H]1C[C@@H]2O[C@]2(C)CCC[C@H](C)[C@H](O)[C@@H](C)C(=O)C(C)(C)[C@@H](O)CC(=O)O1 | 36.1
* CC(C)(C)Cn1c(N)nc2ccc(-c3[nH]c(C(C)(C)C)nc3-c3ccc(F)cc3)nc21 | 87.8

Query :: # cell viability lookup, item COc1ccc(CC2c3cc(OC)c(OC)cc3CC[N+]2(C)CCC(=O)OCCCCCOC(=O)CC[N+]2(C)CCc3cc(OC)c(OC)cc3C2Cc2ccc(OC)c(OC)c2)cc1OC (stereo not drawn)
Result :: 98.4

Query :: # cell viability lookup, item FC1=CC=C(CN2\C=C/C=C(/C(=O)N[C@@H](COC3=CC4=C(NC(=O)N4)C=C3)C5=CC=CC=C5)C2=O)C=C1F
Result :: 94.2

Query :: # cell viability lookup, item C[C@H]1[C@H](O)O[C@@H]2O[C@@]3(C)CC[C@H]4[C@H](C)CC[C@@H]1[C@@]24OO3
Result :: 92.7

Query :: # cell viability lookup, item COC1=CC(=CC=C1)C2=CC=C(NC(=O)/C3=C(/CCC3)C(O)=O)C(=C2)F
Result :: 108

Query :: # cell viability lookup, item OCCNC1CCCc2c1[nH]c1ccc(-c3ccccc3)cc21 (stereo not drawn)
Result :: 84.7

Query :: # cell viability lookup, item CN1CCN(Cc2ccc(NC(=O)Nc3ccc(Oc4cc(NC(=O)C5CC5)ncn4)cc3)cc2C(F)(F)F)CC1
Result :: 53.4

Query :: # cell viability lookup, item OC(CCN1CCCCC1)(C2CC\3CC2\C=C3)C4=CC=CC=C4 (stereo not drawn)
Result :: 97.7

----------
Items are presented alongside their recorded cell viability.
Tested on: P12-Ichikawa
method_summary: cell viability relative to DMSO control; higher = less cytotoxic
applied_conditions: RPMI 5 mM glucose + 10% FBS; 48 h; 46.1 µM
Only the number, expressed in %, is required.

Reference set (4 entries):
* CC(Cc1ccc(O)c(O)c1)(NN)C(=O)O (stereo not given) | 65.3
* O=C(O)[C@@H](c1ccc(OCc2ccc3ccccc3n2)cc1)C1CCCC1 | 96.9
* O=C(Nc1ccc([N+](=O)[O-])cc1Cl)c1cc(Cl)ccc1O | 26.3
* CN1C2=CC(=O)/C(=N/NC(N)=O)C=C2CC1S(=O)(=O)[O-].[Na+] (stereo not given) | 106

Query :: # cell viability lookup, item Cc1ccc(NC(=O)c2cccc(N(C)C)c2)cc1NC(=O)c1ccc(O)cc1
Result :: 95.2

Query :: # cell viability lookup, item COc1cc(Nc2ncc(F)c(Nc3ccc4c(n3)N(COP(=O)(O)O)C(=O)C(C)(C)O4)n2)cc(OC)c1OC
Result :: 87.4

Query :: # cell viability lookup, item CC[C@H](NC(C)C)[C@H](O)c1ccc(O)c2[nH]c(=O)ccc12
Result :: 92.6

----------
Items are presented alongside their recorded AUC of viability dose-response curve.
System: NOMO1
method_summary: AUC of viability dose-response curve (% viability x log10 dose units); higher = less sensitive
applied_conditions: RPMI 5 mM glucose + 10% dialyzed FBS; 48 h
Please give only the number in your answer, with no unit.

Reference set (2 entries):
* O=C1c2c(O)cc(O)cc2O[C@H](c2cc(O)c(O)c(O)c2)[C@H]1O | 453
* OC(CCN1CCCCC1)(C2CC\3CC2\C=C3)C4=CC=CC=C4 (stereo not drawn) | 453

Query :: # AUC of viability dose-response curve lookup, item CCC[C@@H](C=O)NC(=O)[C@H](CC(C)C)NC(=O)[C@H](CC(C)C)NC(=O)OCc1ccccc1
Result :: 359

Query :: # AUC of viability dose-response curve lookup, item CN[C@H]1[C@H](O[C@@H]2[C@H](O[C@@H]3[C@@H](O)[C@@H](O)[C@@H](NC(=N)N)[C@@H](O)[C@H]3NC(=N)N)O[C@H](C)[C@@]2(O)C=O)O[C@@H](CO)[C@@H](O)[C@H]1O
Result :: 449

Query :: # AUC of viability dose-response curve lookup, item NC/1=N/C(=O)N(C[C@@H](CO)OC[P](O)(O)=O)/C=C1
Result :: 475

Query :: # AUC of viability dose-response curve lookup, item C[C@@H](NCc1cc2ccccc2[nH]1)c1cccc2ccccc12
Result :: 449

Query :: # AUC of viability dose-response curve lookup, item OC1=CC2=C(C(=O)\C=C(/O2)C3=CC=CC=C3)C(=C1O)O
Result :: 441

Query :: # AUC of viability dose-response curve lookup, item C[C@]12CC[C@@H]3c4ccc(O)cc4CC[C@H]3[C@@H]1CC[C@@H]2O
Result :: 450

----------
Tested on: SEM cells
method_summary: cell viability relative to DMSO control; higher = less cytotoxic
applied_conditions: RPMI 5 mM glucose + 10% FBS; 48 h; 0.00702 µM
Items are presented alongside their recorded cell viability.
Only the number, expressed in %, is required.

• O=[S+]([O-])(/N=C/c1c(O)ccc2ccccc12)c1cccs1 = 108
• CC(C[N+](C)(C)C)OC(N)=O (stereo not given) = 87
• Cn1cnc(-c2cc3nccc(Oc4ccc(NC(=S)NC(=O)Cc5ccccc5)cc4F)c3s2)c1 = 85.6
• CCOC(CN1C(=O)[C@](CC(=O)Nc2ccc(C)cc2)(NC(=O)Nc2ccc(C)cc2)c2ccccc21)OCC = 113

Attention now shifts to the item below.
Query :: # cell viability lookup, item CCCOc1ccc2[nH]c(NC(=O)OC)nc2c1
Result :: 70

----------
Items are presented alongside their recorded cell viability.
System: NOMO1
method_summary: cell viability relative to DMSO control; higher = less cytotoxic
applied_conditions: RPMI 5 mM glucose + 10% FBS; 48 h; 46.1 µM
Only the number, expressed in %, is required.

Reference set (4 entries):
* C/C(=C\c1csc(C)n1)[C@@H]1C[C@@H]2O[C@@H]2CCC[C@H](C)[C@H](O)[C@@H](C)C(=O)C(C)(C)[C@@H](O)CC(=O)O1 | 19.8
* O=C(O)c1ccc(-c2c[nH]c3ncc(-c4ccccc4)cc23)cc1C1CCCC1 | 117
* C[C@H]1[C@H](O)O[C@@H]2O[C@@]3(C)CC[C@H]4[C@H](C)CC[C@@H]1[C@@]24OO3 | 8.31
* CN1C2=CC(=O)/C(=N/NC(N)=O)C=C2CC1S(=O)(=O)[O-].[Na+] (stereo not given) | 111

Query :: # cell viability lookup, item O=C(C1CC1)N1CC[C@@H](Cn2c(-c3ccc(-c4ccc5occc5c4)cc3)nc3cnccc32)C1
Result :: 113

----------
Items are presented alongside their recorded cell viability.
System: SEM cells
method_summary: cell viability relative to DMSO control; higher = less cytotoxic
applied_conditions: RPMI 5 mM glucose + 10% FBS; 48 h; 15.4 µM
Only the number, expressed in %, is required.

Reference set (2 entries):
- O=C(O)c1ccc(-c2c[nH]c3ncc(-c4ccccc4)cc23)cc1C1CCCC1: 47.1
- O=C(NCCO[N+](=O)[O-])c1cccnc1: 121

Query :: // map C[C@H]1[C@H](O)O[C@@H]2O[C@@]3(C)CC[C@H]4[C@H](C)CC[C@@H]1[C@@]24OO3 to recorded cell viability (system: SEM cells)
Result :: 10.1

Query :: // map CCOC(CN1C(=O)[C@](CC(=O)Nc2ccc(C)cc2)(NC(=O)Nc2ccc(C)cc2)c2ccccc21)OCC to recorded cell viability (system: SEM cells)
Result :: 77.3

Query :: // map Cc1cc(-c2nnc3n2CCCCC3)c(C)n1-c1ccccc1 to recorded cell viability (system: SEM cells)
Result :: 115

Query :: // map C[N]1N=CC2=C1C=C(C(=C2)OC3=CC=C(NC(=O)\C4=C\C=C(\C)N(C4=O)C5=CC=C(F)C=C5)C=C3F)C6=C[NH]N=C6 to recorded cell viability (system: SEM cells)
Result :: 8.07

Query :: // map Cc1cc(SCc2sc(-c3ccc(C(F)(F)F)cc3)nc2C)ccc1OCC(=O)O to recorded cell viability (system: SEM cells)
Result :: 57.5

Query :: // map NCCCCCC(=O)O to recorded cell viability (system: SEM cells)
Result :: 98

Query :: // map CC[C@H](NC(C)C)[C@H](O)c1ccc(O)c2[nH]c(=O)ccc12 to recorded cell viability (system: SEM cells)
Result :: 106

Query :: // map O=C(C[C@@H]1C/C=C\CCC(=O)O[C@H](c2ccccc2)CNC1=O)NCc1ccc(Cl)cc1 to recorded cell viability (system: SEM cells)
Result :: 90.9

Query :: // map O=C(NCCCNc1nc(Nc2cccc(NC(=O)N3CCCC3)c2)ncc1I)c1cccs1 to recorded cell viability (system: SEM cells)
Result :: 77.7

Query :: // map C=C[C@H]1CN2CCC1C[C@@H]2[C@@H](O)c1ccnc2ccccc12 (some centres not stated) to recorded cell viability (system: SEM cells)
Result :: 78.1

Query :: // map C/C(=C\c1csc(C)n1)[C@@H]1C[C@@H]2O[C@@H]2CCC[C@H](C)[C@H](O)[C@@H](C)C(=O)C(C)(C)[C@@H](O)CC(=O)O1 to recorded cell viability (system: SEM cells)
Result :: 16.3

Query :: // map NC(=O)c1cnc(-c2ccc(C3(N)CCC3)cc2)c(-c2ccccc2)c1 to recorded cell viability (system: SEM cells)
Result :: 43.2

Query :: // map O=[N+]([O-])c1ccc(Nc2ccccc2-c2ccccc2)c2nonc12 to recorded cell viability (system: SEM cells)
Result :: 32.2

Query :: // map CN1C2=CC(=O)/C(=N/NC(N)=O)C=C2CC1S(=O)(=O)[O-].[Na+] (configuration not stated) to recorded cell viability (system: SEM cells)
Result :: 125

Query :: // map CCc1c(O)cc(O)c(C(=O)c2ccc(OCCN3CCOCC3)c(OC)c2)c1CC(=O)N(CCOC)CCOC to recorded cell viability (system: SEM cells)
Result :: 20.8

Query :: // map O=C1CCC[C@@H]2[C@H]3CCC[N+]4([O-])CCC[C@@H](CN12)[C@@H]34 (some centres not stated) to recorded cell viability (system: SEM cells)
Result :: 18.8

Query :: // map CC(=O)OCC(=O)[C@@]12OC(C)(C)O[C@@H]1C[C@H]3[C@@H]4C[C@H](F)C/5=C/C(=O)/C=C\[C@]5(C)[C@@]4(F)[C@@H](O)C[C@]23C to recorded cell viability (system: SEM cells)
Result :: 78.2
